Cited source for all entries: patent US7511041B2

Recorded melting point by entry
value.kind: melting point

> print(dat)
                                   compound                result
1  O=[N+]([O-])c1ccc2c(c1)C1=NCCN1C(/C=C(\O)c1cccnc1)=N2 [Example 1-192]                306 °C
2  CCOc1ccc2c(c1OC)N=C(/C=C(\O)c1cccnc1)N1CCN=C21 [Example 1-13]         267 to 268 °C
3  Cc1ccc2c(c1OCCN1CCOCC1)N=C(/C=C(\O)c1cccnc1)N1CCN=C21.Cl [Example 1-40]         256 °C (dec.)
4  COc1ccc2c(c1)N=C(NC(=O)c1ccc(NC(C)=O)nc1)N1CCN=C21.Cl [Example 2-22]  198 to 205 °C (dec.)
5  COc1cc2c(c(OC)c1C)N=C(NC(=O)c1cccnc1C)N1CCN=C21 [Example 2-77]         210 °C (dec.)
6  Cl.O=C(NC1=Nc2ccccc2C2=NCCN12)c1cccs1 [Example 2-179]         310 °C (dec.)
7  COC(=O)CCCOc1ccc2c(c1OC)N=C(/C=C(\O)c1cccnc1)N1CCN=C21 [Example 1-5]         199 to 200 °C
8  N#Cc1ccc(/C(O)=C/C2=Nc3ccccc3C3=NCCN23)s1 [Example 1-177]                256 °C

* * *

Biological target: Recombinant human PI3Kγ (full length human PI3K p110γ) (Homo sapiens, UniProt P48736)
Construct: full length human PI3K p110γ fused with a His6-tag at the C-terminus; His6 (C); purchased ALEXIS BIOCHEMICALS #201-055-C010; host or cells: S. frugiperda 9 insect cells
Sequence (P48736 whole entry, the tested form may be a part): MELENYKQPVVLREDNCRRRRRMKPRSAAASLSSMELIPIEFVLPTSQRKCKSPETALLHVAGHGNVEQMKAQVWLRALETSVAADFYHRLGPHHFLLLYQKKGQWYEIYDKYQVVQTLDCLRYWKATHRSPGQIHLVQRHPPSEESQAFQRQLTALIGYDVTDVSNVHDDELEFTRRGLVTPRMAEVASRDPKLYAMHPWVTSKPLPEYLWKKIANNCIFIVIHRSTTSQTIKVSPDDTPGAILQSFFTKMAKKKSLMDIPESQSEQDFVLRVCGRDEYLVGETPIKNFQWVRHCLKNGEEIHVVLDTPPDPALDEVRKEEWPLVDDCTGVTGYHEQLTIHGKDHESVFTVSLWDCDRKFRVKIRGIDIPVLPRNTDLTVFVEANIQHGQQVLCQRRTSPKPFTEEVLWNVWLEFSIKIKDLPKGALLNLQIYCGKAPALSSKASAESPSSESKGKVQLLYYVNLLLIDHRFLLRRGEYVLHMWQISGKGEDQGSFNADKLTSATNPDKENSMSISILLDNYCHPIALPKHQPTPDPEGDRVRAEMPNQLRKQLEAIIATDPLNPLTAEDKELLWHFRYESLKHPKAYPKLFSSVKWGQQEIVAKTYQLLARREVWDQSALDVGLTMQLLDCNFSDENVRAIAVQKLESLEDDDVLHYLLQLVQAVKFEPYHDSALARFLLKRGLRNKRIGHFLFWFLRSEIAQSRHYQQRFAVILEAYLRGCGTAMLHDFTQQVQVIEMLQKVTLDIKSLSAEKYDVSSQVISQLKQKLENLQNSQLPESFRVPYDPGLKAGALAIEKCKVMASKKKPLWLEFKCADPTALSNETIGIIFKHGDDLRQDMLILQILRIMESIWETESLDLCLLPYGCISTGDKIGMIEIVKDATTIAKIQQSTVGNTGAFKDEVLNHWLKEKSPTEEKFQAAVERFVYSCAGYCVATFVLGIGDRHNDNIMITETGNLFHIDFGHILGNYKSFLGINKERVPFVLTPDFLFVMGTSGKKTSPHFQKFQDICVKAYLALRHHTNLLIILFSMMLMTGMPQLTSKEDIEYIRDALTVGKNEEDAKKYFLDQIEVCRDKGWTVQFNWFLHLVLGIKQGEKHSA
Assay: Kinase assay of PI3Kγ (solid-phase lipid kinase assay)
Type: biochemical
Conditions: Table 1, isozyme not given; read-out: in vitro
pIC50: −log10 of the molar value.
value.kind: pIC50

> print(dat)
                               smiles.input        result
1  O/C(=C\C1=Nc2cc(N3CCOCC3)ccc2C2=NCCN12)c1ccc2[nH]cnc2c1        > 7.00
2  COc1ccc(/C(O)=C/C2=Nc3ccccc3C3=NCCN23)cc1        < 5.70
3  O/C(=C\C1=Nc2ncccc2C2=NCCN12)c1ccc2[nH]cnc2c1        > 7.00
4  CCCNc1ccc(/C(O)=C/C2=Nc3ccccc3C3=NCCN23)cn1  6.30 to 7.00
5  COc1cc2c(cc1OC)C1=NCCN1C(/C=C(\O)c1ccc(NC(C)=O)nc1)=N2.Cl  6.30 to 7.00
6  CC(=O)Nc1ccc(/C(O)=C/C2=Nc3c(C)cc(Br)cc3C3=NCCN23)cn1.Cl  6.30 to 7.00
7  Cl.O/C(=C\C1=Nc2cc(Br)ccc2C2=NCCN12)c1cccnc1  6.30 to 7.00
8  Cl.O/C(=C\C1=Nc2c(O)cccc2C2=NCCN12)c1cccnc1  6.30 to 7.00

* * *

Molecular target: Recombinant human PI3Kγ (full length human PI3K p110γ) (Homo sapiens, UniProt P48736)
Construct: full length human PI3K p110γ fused with a His6-tag at the C-terminus; His6 (C); purchased ALEXIS BIOCHEMICALS #201-055-C010; host or cells: S. frugiperda 9 insect cells
Test: Kinase assay of PI3Kγ (solid-phase lipid kinase assay)
Format: biochemical
Details: in vitro PI3K-γ inhibitory activity, class symbols A-D; read-out: in vitro PI3K-gamma
pIC50: −log10 of the molar value.
Recorded pIC50 by entry
value.kind: pIC50

> print(dat)
                                    compound                               measured.on  value.kind        result
 1  O=C(NC1=Nc2ccccc2C2=NCCN12)c1ccc([N+](=O)[O-])cc1 [Example 2-254]  Recombinant human PI3Kγ (full length human PI3K p110γ) (Homo sapiens, UniProt P48736)       pIC50        < 5.70
 2  O=C(NC1=Nc2ccccc2C2=NCCN12)c1cnccn1 [Example 2-292]  Recombinant human PI3Kγ (full length human PI3K p110γ) (Homo sapiens, UniProt P48736)       pIC50  5.70 to 6.30
 3  COc1ccc(C(=O)NC2=Nc3ccccc3C3=NCCN23)c(OC)n1 [Example 2-286]  Recombinant human PI3Kγ (full length human PI3K p110γ) (Homo sapiens, UniProt P48736)       pIC50        < 5.70
 4  O=C(NC1=Nc2ccccc2C2=NCCN12)c1cnc2ccccc2c1 [Example 2-316]  Recombinant human PI3Kγ (full length human PI3K p110γ) (Homo sapiens, UniProt P48736)       pIC50        < 5.70
 5  COc1ccc(CC(=O)NC2=Nc3ccccc3C3=NCCN23)cc1 [Example 2-323]  Recombinant human PI3Kγ (full length human PI3K p110γ) (Homo sapiens, UniProt P48736)       pIC50        < 5.70
 6  CCC(C)[C@H]1CN2C(NC(=O)c3cccnc3)=Nc3ccccc3C2=N1.Cl (stereo partly shown) [Example 2-364]  Recombinant human PI3Kγ (full length human PI3K p110γ) (Homo sapiens, UniProt P48736)       pIC50        < 5.70
 7  COC(=O)c1cccc(C(=O)NC2=Nc3ccccc3C3=NCCN23)c1 [Example 2-272]  Recombinant human PI3Kγ (full length human PI3K p110γ) (Homo sapiens, UniProt P48736)       pIC50        < 5.70
 8  Cc1cccc(C(=O)NC2=Nc3ccccc3C3=NCCN23)c1 [Example 2-216]  Recombinant human PI3Kγ (full length human PI3K p110γ) (Homo sapiens, UniProt P48736)       pIC50        < 5.70
 9  COC(=O)c1ccc(C(=O)NC2=Nc3ccccc3C3=NCCN23)cc1 [Example 2-273]  Recombinant human PI3Kγ (full length human PI3K p110γ) (Homo sapiens, UniProt P48736)       pIC50        < 5.70
10  Cl.O=C(NC1=Nc2ccc(O)cc2C2=NCCN12)c1cccnc1 [Example 2-211]  Recombinant human PI3Kγ (full length human PI3K p110γ) (Homo sapiens, UniProt P48736)       pIC50        > 7.00
11  O=C(NC1=Nc2ccc(O)cc2C2=NCCN12)c1cccnc1 [Example 2-210]  Recombinant human PI3Kγ (full length human PI3K p110γ) (Homo sapiens, UniProt P48736)       pIC50  6.30 to 7.00
12  COc1cccc(C(=O)NC2=Nc3ccccc3C3=NCCN23)c1 [Example 2-233]  Recombinant human PI3Kγ (full length human PI3K p110γ) (Homo sapiens, UniProt P48736)       pIC50        < 5.70
13  Cc1ccc(C(=O)NC2=Nc3ccccc3C3=NCCN23)s1 [Example 2-302]  Recombinant human PI3Kγ (full length human PI3K p110γ) (Homo sapiens, UniProt P48736)       pIC50  5.70 to 6.30
14  COc1c(C)cc(C(=O)NC2=Nc3ccccc3C3=NCCN23)cc1C [Example 2-220]  Recombinant human PI3Kγ (full length human PI3K p110γ) (Homo sapiens, UniProt P48736)       pIC50        < 5.70
15  Cl.O=C(NC1=Nc2ccccc2C2=NCCN12)c1cccnc1O [Example 2-284]  Recombinant human PI3Kγ (full length human PI3K p110γ) (Homo sapiens, UniProt P48736)       pIC50        < 5.70
16  CCCC(=O)NC1=Nc2ccccc2C2=NCCN12 [Example 2-328]  Recombinant human PI3Kγ (full length human PI3K p110γ) (Homo sapiens, UniProt P48736)       pIC50        < 5.70
17  CC(C)n1c(C(F)(F)F)nc2cc(C(=O)NC3=Nc4ccccc4C4=NCCN34)ccc21 [Example 2-309]  Recombinant human PI3Kγ (full length human PI3K p110γ) (Homo sapiens, UniProt P48736)       pIC50        < 5.70
18  Cc1cccc(C(=O)NC2=Nc3ccccc3C3=NCCN23)c1.O=C(O)C(F)(F)F [Example 2-217]  Recombinant human PI3Kγ (full length human PI3K p110γ) (Homo sapiens, UniProt P48736)       pIC50  6.30 to 7.00
19  Cn1c(C(=O)NC2=Nc3ccccc3C3=NCCN23)cc2ccccc21 [Example 2-314]  Recombinant human PI3Kγ (full length human PI3K p110γ) (Homo sapiens, UniProt P48736)       pIC50        < 5.70

* * *

Recorded melting point by entry
value.kind: melting point

> print(dat)
                                smiles.input         result
 1  CNc1ccc(/C(O)=C/C2=Nc3cc(OC)c(OC)cc3C3=NCCN23)cn1  321 to 325 °C
 2  O=C(NC1=Nc2ccccc2C2=NCCN12)C1CCN(C(=O)OCc2ccccc2)CC1  111 to 112 °C
 3  OCCOc1cccc2c1N=C(/C=C(\O)c1cccnc1)N1CCN=C21  211 to 212 °C
 4    O=C(NC1=Nc2cc(Cl)ccc2C2=NCCN12)c1cccs1         228 °C
 5  CC(=O)Nc1ccc(/C(O)=C/C2=Nc3nc(C)ccc3C3=NCCN23)cn1       > 300 °C
 6  CNC(=O)COc1ccc2c(c1OC)N=C(/C=C(\O)c1cccnc1)N1CCN=C21.Cl  240 °C (dec.)
 7  COc1cccc(C(=O)NC2=Nc3ccccc3C3=NCCN23)c1.O=C(O)C(F)(F)F  209 to 211 °C
 8  COc1c(OCC(=O)N(C)C)ccc2c1N=C(/C=C(\O)c1cccnc1)N1CCN=C21  241 to 242 °C
 9  Cl.O=C(NC1=Nc2c(Cl)cccc2C2=NCCN12)c1cccnc1       > 280 °C
10  COc1ccc2c(c1)N=C(NC(=O)c1cccnc1)N1CCN=C21  281 °C (dec.)
11  Cl.O/C(=C\C1=Nc2c(CN3CCOCC3)cccc2C2=NCCN12)c1cccnc1  259 °C (dec.)
12  COc1ccc2c(c1OC)N=C(NC(=O)c1cnc3[nH]cnc3c1)N1CCN=C21.Cl  210 °C (dec.)
13  Cc1ccc2c(c1)N=C(NC(=O)c1cccnc1)N1CCN=C21         207 °C
14  O=C(NC1=Nc2ccccc2C2=NCCN12)c1ccc(C(F)(F)F)nc1  219 to 220 °C
15  O=C(NCCc1ccc2c(n1)N=C(/C=C(\O)c1cccnc1)N1CCN=C21)N1CCOCC1         262 °C
16    Cl.Cn1cccc1C(=O)NC1=Nc2ccccc2C2=NCCN12  264 °C (dec.)
17  COc1ccc2c(c1OC)N=C(/C=C(\O)c1ccc(NC(C)=O)nc1)N1CCN=C21  270 °C (dec.)
18  COc1cc(OC)cc(C(=O)NC2=Nc3ccccc3C3=NCCN23)c1  330 °C (dec.)
